- protocol-notes: Assessment of Lipophilicity (Log D; pH 7.4)
- Assay type: physicochemical
observable: logD

[[record]]
mol_smiles = "COc1ccnc(N2CCC3(CCCN(Cc4cn(C)c5ccccc45)C3=O)CC2)n1"
quantitative_readout = 2.3


====

- measured-on: human recombinant orexin OX1 receptors (Homo sapiens, UniProt O43613)
- Construct: host or cells: CHO-S cells
- Sequence (O43613 whole entry): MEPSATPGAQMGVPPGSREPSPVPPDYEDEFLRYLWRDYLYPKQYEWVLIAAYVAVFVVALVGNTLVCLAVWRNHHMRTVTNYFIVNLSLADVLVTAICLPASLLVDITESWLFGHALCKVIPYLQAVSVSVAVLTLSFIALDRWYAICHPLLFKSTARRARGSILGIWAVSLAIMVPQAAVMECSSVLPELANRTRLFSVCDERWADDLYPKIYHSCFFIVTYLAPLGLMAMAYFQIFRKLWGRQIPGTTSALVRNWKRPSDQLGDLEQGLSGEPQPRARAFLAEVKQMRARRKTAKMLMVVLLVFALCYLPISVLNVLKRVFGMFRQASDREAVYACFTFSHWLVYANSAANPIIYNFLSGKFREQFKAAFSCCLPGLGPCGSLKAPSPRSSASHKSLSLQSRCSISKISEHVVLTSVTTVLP
- protocol-notes: Human Orexin GPCR Binding (Agonist Radioligand) Assay, [125I] Orexin A competition
- experimental-parameters: competition binding against [^125I] orexin; read-out: IC50 OX1R
- Description: Radioligand competition binding assays were performed by Panlabs, Eurofins Pharma Discovery Services. Briefly, human recombinant orexin OX1 receptors expressed in CHO-S cells were used in modified HEPES buffer pH 7.4. […] Orexin A for 60 minutes at 25 °C. […] Orexin A specifically binding. Human recombinant OX2 receptors were used in modified HEPES buffer pH 7.4. […] Orexin A for 180 minutes at 25 °C. […] Orexin A specifically bound.
pIC50: −log10 of the molar value.
observable: pIC50

[[record]]
mol_smiles = "COc1ccnc(N2CCC3(CCCN(Cc4cn(C)c5ccccc45)C3=O)CC2)n1"
quantitative_readout = 6.60


From: paper PMC7179119
